Origin of the recorded values: paper PMC3894171

Attribute: pKd
molecular target: hNELF-E(mut) (human, UniProt P18615 1-380, E269N;D270K;M271V;P273E;T274D;L275F); test: F-EMSA; 10 mM HEPES-NaOH pH 7.5, 100 mM NaCl, 25 mM KCl, 1 mM MgCl2, 0.02% Tween-20, 0.01% IGEPAL CA-630, 10 µg/ml yeast tRNA; 2 nM RNA, 0-2000 nM protein, 1-2 h, binding temperature not stated; gel 5% acrylamide 0.5X TBE at 4 °C; conditions: protein: recombinant; tags: N-terminal His6 (pHIS-parallel1); label: 3' fluorescein (5-thiosemicarbazide); hairpin with UCU bulge
Sequence (P18615 whole entry E269N/D270K/M271V/P273E/T274D/L275F): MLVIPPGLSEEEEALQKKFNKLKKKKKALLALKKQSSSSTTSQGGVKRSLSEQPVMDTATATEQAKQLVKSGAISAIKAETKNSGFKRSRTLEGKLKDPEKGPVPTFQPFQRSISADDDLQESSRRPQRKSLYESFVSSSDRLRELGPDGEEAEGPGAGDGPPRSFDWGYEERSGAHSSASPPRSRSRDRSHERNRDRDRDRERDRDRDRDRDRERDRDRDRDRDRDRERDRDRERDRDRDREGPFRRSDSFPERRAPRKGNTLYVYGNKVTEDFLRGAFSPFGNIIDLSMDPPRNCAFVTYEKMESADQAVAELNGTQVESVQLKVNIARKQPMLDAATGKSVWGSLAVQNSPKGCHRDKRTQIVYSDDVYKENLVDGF
# reply with the number alone; pKd is -log10 of concentration in mol/L

Tell me its pKd given HIV-1 TAR+A (structured_RNA) RNA: GGUCUCUCUGGUUAGACCAGAUCUGAGCCUGAGGAGCUCUCUGGCUAACUAGGGAACC as the entry.
6.63

Tell me its pKd given HIV-1 TAR (structured_RNA) RNA: GGUCUCUCUGGUUAGACCAGAUCUGAGCCUGGGAGCUCUCUGGCUAACUAGGGAACC as the entry.
6.59
